Kindly state pKd for each of the entries shown.
# tgt: T1, Smy1-MIS::Myo2-GTD fusion protein (Saccharomyces cerevisiae | …)
# T1 chain: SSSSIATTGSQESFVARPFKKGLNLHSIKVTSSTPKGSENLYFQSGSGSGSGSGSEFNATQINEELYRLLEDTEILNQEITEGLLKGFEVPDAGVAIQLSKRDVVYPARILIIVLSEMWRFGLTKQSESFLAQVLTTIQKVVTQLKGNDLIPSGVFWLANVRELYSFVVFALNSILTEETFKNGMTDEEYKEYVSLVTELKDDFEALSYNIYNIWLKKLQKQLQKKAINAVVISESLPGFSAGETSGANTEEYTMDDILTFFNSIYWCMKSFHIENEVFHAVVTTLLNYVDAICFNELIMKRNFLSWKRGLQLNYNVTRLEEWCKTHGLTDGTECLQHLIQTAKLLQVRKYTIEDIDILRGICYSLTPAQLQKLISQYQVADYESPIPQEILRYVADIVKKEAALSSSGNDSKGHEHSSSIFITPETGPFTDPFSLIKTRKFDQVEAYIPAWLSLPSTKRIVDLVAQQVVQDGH
# method notes: ITC
Scale explanation: pKd corresponds to minus log10 of a concentration expressed in moles per litre.

Give reported pKd value for PNEAPNDSPQSQSTRSSLGSFQPRPLKIIERQRLCMVTPSKPPKKS (domain or fragment, Limits taken from 6IXQ: the fusion as Smy1-MIS, TEV site, SG linker, Myo2-GTD, assumed uncleaved as a single chain; the linker is part of the fusion) [Vac17-MIS (Myo2-interacting sequence of Vac17)]
6.49

Answer with the recorded pKd of GST-Pea2-CC1 (GST-tagged Pea2-CC1; dimer) (domain or fragment, N-terminal GST (pGEX-4T-1) left out; GST drives the dimerization Limits taken from 6IXQ: the fusion as Smy1-MIS, TEV site, SG linker, Myo2-GTD, assumed uncleaved as a single chain; the linker is part of the fusion) AIQEEDSSKKLEELETAFSDLQLAHNFLTKQFENDRAEYVQDIEKLTRTNRELQDKLLNNHSNLSKTEKKLHELEQENKELEKANNKLNSSRH only.
4.92

Supply reported pKd belonging to this binder: GNSARIPCPKTRLARVSVLDLKKIEEQPDSSSG (Limits taken from 6IXQ: the fusion as Smy1-MIS, TEV site, SG linker, Myo2-GTD, assumed uncleaved as a single chain; the linker is part of the fusion) [Mmr1]
5.21
